Provenance of the data: the supplement of paper PMC12645437

# Assay system: T1, CRBN, Q96SW2;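 further: pooled lentiviral library of zinc finger degron-EGFP fusions in mCherry-positive Jurkat cells, FACS-sorted after compound exposure, with degron abundance counted by next-generation sequencing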
# T1 chain: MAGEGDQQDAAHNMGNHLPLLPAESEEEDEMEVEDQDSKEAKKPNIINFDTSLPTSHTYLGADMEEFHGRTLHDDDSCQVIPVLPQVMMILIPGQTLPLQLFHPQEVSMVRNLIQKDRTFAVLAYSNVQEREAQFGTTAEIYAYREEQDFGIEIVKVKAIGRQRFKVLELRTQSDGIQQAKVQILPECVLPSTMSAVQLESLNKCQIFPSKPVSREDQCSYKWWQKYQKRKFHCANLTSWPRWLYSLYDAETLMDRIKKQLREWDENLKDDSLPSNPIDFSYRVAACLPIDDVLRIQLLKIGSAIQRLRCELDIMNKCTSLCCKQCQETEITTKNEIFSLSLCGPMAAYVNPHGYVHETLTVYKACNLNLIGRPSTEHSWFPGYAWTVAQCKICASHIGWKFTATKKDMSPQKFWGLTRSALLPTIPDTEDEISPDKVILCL
# Method notes: log2 fold change of degron read counts, EGFP-low vs EGFP+ sorted cells (limma voom), compound-induced degradation; higher = more compound-induced degradation of the degron-EGFP fusion; degrons are variants of IKZF1/3 zinc finger 2; compound dose not given here
# Recorded conditions: Jurkat; 18 h; compound: compound 19 (5-tert-butyl-thalidomide)
In all, about 8,300 sequences were measured (“log2 fold change of degron read counts, EGFP-low vs EGFP+ sorted cells (limma voom), compound-induced degradation”: median about -1.1, highest 2% from about 3.2 on). This is one part of a sample in which the highest values are shown more often than they occur.
Readout label: log2 fold change of degron read counts
Just the number.

[
  {
    "Sequence data": "FVCPICGASFTQKGNLLRHIKL [46F_47V_49P_50I_52G_53A_54S_55F_67L_, Q9UKT9]",
    "log2 fold change of degron read counts": 0.995
  }
]

What the record says about FDCNQCGRPFTQKGNLLRHIKL [46F_47D_49N_50Q_52G_53R_54P_55F_67L_, Q9UKT9] : log2 fold change of degron read counts is -2.11

What the record says about FDCNQCGRHFTQKGNLLRHIKL [46F_47D_49N_50Q_52G_53R_54H_55F_67L_, Q9UKT9] : log2 fold change of degron read counts is -2.61

What the record says about FWCPICGRRFTQKGNLLRHIKL [46F_47W_49P_50I_52G_53R_54R_55F_67L_, Q9UKT9] : log2 fold change of degron read counts is -0.549
